Stability RE, 30 days at −20 °C: recorded values
- assay notes: Stability of analytes in rat plasma under storage conditions
- Type: physicochemical
- experimental context: rat plasma, medium QC concentration, n = 6
readout kind: Stability RE, 30 days at −20 °C (%)

• O=C1NCCc2cc3c(cc21)OCO3 [noroxyhydrastinine] = −2.75
• COc1cc2c(cc1OC)-c1cc3ccc(OC)c(OC)c3c[n+]1CC2 = −13.85
• O=c1c2c3c(ccc2cc2n1CCc1cc4c(cc1-2)OCO4)OCO3 = 9.66
• C[n+]1c2n(c(=O)c3ccccc31)CCc1c-2[nH]c2ccccc12 [dehydroevodiamine] = −1.12
• COc1ccc2cc3[n+](cc2c1OC)CCc1cc2c(cc1-3)OCO2 = −13.68
• c1c2c(cc3c1OCO3)-c1cc3ccc4c(c3c[n+]1CC2)OCO4 = −8.99

Attribution: paper PMC6155683
